Entry source: patent US11299478B2

system name: UniProt P07711
Sequence (P07711 114-333, species assumed): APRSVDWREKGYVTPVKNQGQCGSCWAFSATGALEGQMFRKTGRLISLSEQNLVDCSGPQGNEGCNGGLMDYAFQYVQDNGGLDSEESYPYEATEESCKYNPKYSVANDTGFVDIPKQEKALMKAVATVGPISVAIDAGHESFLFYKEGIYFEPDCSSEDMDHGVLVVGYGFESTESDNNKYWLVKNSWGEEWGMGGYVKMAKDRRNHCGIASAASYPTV
method notes: Inhibitory activity assay against cathepsin L (enzyme assay)
Format: biochemical
condition summary: Z-Phe-Arg-AMC 2 μM, enzyme 3 nM, pH 5.5, 30 minutes
Listing of entries alongside the reported IC50.

Under UniProt P07711: IC50 value of N#Cc1nccc(C2(NC(=O)OCc3cccc4ccccc34)CCCCC2)n1 [Example 26] ?
5950 nM

Under UniProt P07711: IC50 value of N#Cc1nccc(C2(NC(=O)Nc3ccc(-c4ccc(S(=O)(=O)C(F)(F)F)cc4)cc3)CCCCC2)n1 [Example 169] ?
> 10000 nM

Under UniProt P07711: IC50 value of N#Cc1nccc(C2(NC(=O)Nc3ccc(N4CCNCC4)cc3)CCCCC2)n1 [Example 140] ?
6570 nM

Under UniProt P07711: IC50 value of Cc1ccccc1COC(=O)NC1(c2ccnc(C#N)n2)CCCCC1 [Example 17] ?
1420 nM

Under UniProt P07711: IC50 value of Cc1ccc(C)c(NC(=O)NC2(c3ccnc(C#N)n3)CCCCC2)c1 [Example 87] ?
898 nM

Under UniProt P07711: IC50 value of CC(NC(=O)NC1(c2ccnc(C#N)n2)CCCC1)c1ccccc1 (stereo not drawn) [Example 51] ?
4170 nM

Under UniProt P07711: IC50 value of N#Cc1nccc(C2(NC(=O)Nc3cc(F)ccc3F)CCCC2)n1 [Example 65] ?
> 10000 nM

Under UniProt P07711: IC50 value of N#Cc1nccc(C2(NC(=O)Nc3ccc(-c4ccc(OCCN)cc4)cc3)CCCCC2)n1 [Example 190] ?
> 10000 nM

Under UniProt P07711: IC50 value of N#Cc1nccc(C2(NC(=O)Nc3ccc(N4CCN(C5CC5)CC4)cc3)CCCCC2)n1 [Example 144] ?
> 10000 nM
